Experiment: protease stability score; higher = more stable; yeast display proteolysis, trypsin and chymotrypsin;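 note: log10 excess protease needed over predicted unfolded state with 0 meaning unfolded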
endpoint: protease stability score

Worked cases, answers included:
// query Dear colleague, I am looking for the recorded protease stability score of the following sequence: DEEEQRKTAEDIAQVLRTNNPDTMNKLADKNAKASVGDKTYHGRKELSKWIEEQRRRVDHVDIKRFSVDGNEIIIIVILNHNGQNTRVVMVARVKNGRIQSLWRKSK
// result -0.176

// query Dear colleague, I am looking for the recorded protease stability score of the following sequence: DEHLNRHLSTVLNILQEGDPKKLLQQFDPNAHFQIGDTHVHGREQMDQQMERERRRARTEVKDYKVDDQGEQLVLHMTFRVDRNGKPKEMQATIKAEVHNGHFKEMKFETDR
// result -0.089

// query Dear colleague, I am looking for the recorded protease stability score of the following sequence: DDDALRRLEELWSALEEGDESRVNRNIDPNARLKIGDTTIHGREKLAESLVRDWKEIKLEIEFKTLEAHNGQARLEAIEHFRINGRPEQINFRMQMHQRNGNVDEIVIEMDPDQQRKKES
// result -0.133

// query Dear colleague, I am looking for the recorded protease stability score of the following sequence: DERDHVRRLLNTWLKVVKRNDEDQARRLADPNARVEVGDKTYSGDEKVVELMHKIRQQYDSIDIHLHTVKREGDFIHAKAKMDAKVNGKQEDVTMFIWFKQHNGEWHILQVIIK
// result 0.723

// query Dear colleague, I am looking for the recorded protease stability score of the following sequence: DHEDKERASQAIEAWNTGDPREFEKQFDPNARVHVGDRHIHGREQFEDEMKRHKDESRYEISLRNVTVDNGRIKLDVVLSVDENGRPETQHLKIDLELHNGRVVSMQFNHKK
// result -0.209

// query Dear colleague, I am looking for the recorded protease stability score of the following sequence: SEEQVEKLVKVMFRAVQNGNKDEVKKYGKSSGQFVFGSDRVEGVDQYVKKLKEVHDRGVQFEFKKFQVKDDTVTMETEVHYGNKTFRVTAQAKYDGGTLDRARVEISEEAKEAYKQG
// result 0.368

// query Dear colleague, I am looking for the recorded protease stability score of the following sequence: DKEEAQKVAEQMVKAIKNGNLDELADAGDDGVDYQVGDEKKRGREDIKRHVEKLQKAGVEMEVKEVRVEGNEVETKLTYKIGNTEVTVKVTVEVEGGKINRVEVRMSEEVEKTVRHG
// result -0.193

// query Dear colleague, I am looking for the recorded protease stability score of the following sequence: DEKDVERVLEAIKTNNRSEIRNQADPNARARVGDKKLHGMEDAAHKFAKFLDRADNHEVKDVSVDGDRATMDVKVRVDGEDVRFVVKFQVKNGRITHLEVEATSDHVDRRAEQAMK
// result 0.581

Further cases:
// query Dear colleague, I am looking for the recorded protease stability score of the following sequence: DEHAERIFRKWMTIYKKGDPKKVKELLDPNARVRIGDKRIRGRETAAEQQSTRADEMRNDVKVKHLEVNGDDLVVRIKFTSEENGNPKDQEAKFDWNIHNGKIRSQTQDIKG
// result -0.017

// query Dear colleague, I am looking for the recorded protease stability score of the following sequence: DKEEFEKTAKTFMKVWTNGDPDQWKELMDPNARLQIGDKEWHGREEVREAITQFHDRVDHIEVKDLKVTEDHVRLIAVVRFNGREVKVTVNIHFENGRATHVENHFTDDDQLKRNLS
// result -0.084

// query Dear colleague, I am looking for the recorded protease stability score of the following sequence: DTDDTEALRRFFDALHNGDPDKVDKNADKDVRFKVGDKEIHGREQLRRTVEQQKKEIRYEVDVKQISDHNGQVSVHAHFQENKNGKPKNVEVTAVAEAENGTLKQLEFNSDQ
// result -0.367
